Listed here are molecules together with their documented pKd.
Molecular target: BRD4-BD1 (Homo sapiens, UniProt O60885)
Construct: made in house; host or cells: T7 phage grown in an E. coli host derived from the BL21 strain
Assay: Binding affinity to BRD4-BD1 (bromoKdELECT assay)
Details: 11-point 3-fold dilution series
Experimental: Compounds were tested using a bromoKdELECT assay. T7 phage strains displaying bromodomains were grown in parallel in 24-well blocks in an E. coli host derived from the BL21 strain. […] Kds were determined using an 11-point 3-fold compound dilution series with one DMSO control point. […] The bromodomain concentration in the eluates was measured by qPCR.
pKd: −log10 of the molar value.

>>> result("CCS(=O)(=O)Nc1ccc(Oc2cccc(OCCOCCOC3CCN(c4ncc(C(=O)N[C@H]5C(C)(C)[C@H](Oc6ccc(C#N)c(Cl)c6)C5(C)C)cn4)CC3)c2)c(-c2cn(C)c(=O)c3[nH]ccc23)c1")
"5.60 to 6.30"

Query :: Form entry - test system: BRD4-BD1 (Homo sapiens, UniProt O60885); read-out: pKd; molecule: Cn1cc(-c2cc(C(C)(C)O)ccc2Oc2cccc(OCCOC3CCN(c4ncc(C(=O)N[C@H]5C(C)(C)[C@H](Oc6ccc(C#N)c(Cl)c6)C5(C)C)cn4)CC3)c2)c2cc[nH]c2c1=O
Result :: 5.60 to 6.30

Query :: And what about the molecule CCS(=O)(=O)Nc1ccc(Oc2cccc(N3CC(N4CCN(c5ncc(C(=O)N[C@H]6C(C)(C)[C@H](Oc7ccc(C#N)c(Cl)c7)C6(C)C)cn5)CC4)C3)c2)c(-c2cn(C)c(=O)c3[nH]ccc23)c1 ?
Result :: 6.30 to 7.30

###

Tested on: T-Rex 293 cell line SC cells lacking increased expression of progesterone receptor isoform B protein
Assay: Cellular growth inhibition assay, T-Rex 293 SC cells not exposed to doxycycline (no increased progesterone receptor isoform B expression), CellTiter-Glo
Format: cell-based
Details: T-Rex 293 SC cells without doxycycline (no increased PR isoform B), 72 hours
Listed here are compounds together with their documented GI50.

>>> result("CN(CCOc1ccc(Oc2ccc(C(C)(C)O)cc2-c2cn(C)c(=O)c3[nH]ccc23)cc1)c1ncc(C(=O)N[C@H]2C(C)(C)[C@H](Oc3ccc(C#N)c(Cl)c3)C2(C)C)cn1")
"< 500 nM"

Query :: Look up GI50: CCS(=O)(=O)Nc1ccc(Oc2cccc(OC3CCC4(CC3)CCN(c3ncc(C(=O)N[C@H]5C(C)(C)[C@H](Oc6ccc(C#N)c(Cl)c6)C5(C)C)cn3)CC4)c2)c(-c2cn(C)c(=O)c3[nH]ccc23)c1
Result :: > 3000 nM

Query :: And what about the compound CCS(=O)(=O)Nc1ccc(Oc2cccc(OCCOC3CCN(c4cnc(C(=O)N[C@H]5C(C)(C)[C@H](Oc6ccc(C#N)c(Cl)c6)C5(C)C)cn4)CC3)c2)c(-c2cn(C)c(=O)c3[nH]ccc23)c1 ?
Result :: < 500 nM

Query :: And what about the compound CN(C1CN(c2ccc(Oc3ccc(C(C)(C)O)cc3-c3cn(C)c(=O)c4[nH]ccc34)cc2)C1)C1CN(c2ncc(C(=O)N[C@H]3C(C)(C)[C@H](Oc4ccc(C#N)c(Cl)c4)C3(C)C)cn2)C1 ?
Result :: < 500 nM

Query :: And what about the compound CN(CC1CCN(c2ncc(C(=O)N[C@H]3C(C)(C)[C@H](Oc4ccc(C#N)c(Cl)c4)C3(C)C)cn2)CC1)C1(c2ccc(Oc3ccc(C(C)(C)O)cc3-c3cn(C)c(=O)c4[nH]ccc34)cc2)COC1 ?
Result :: 1500 to 3000 nM

Data provenance is patent US20250388605A1.
